The origin of these recorded values is patent US12662451B2.

Documented CC50 across a set of compounds
tested on: SW48 human colorectal cancer cells; assay: Calculated free drug potency in SW48 cell assay, corrected with media free fraction (Example C); format: cell-based; conditions: Homo sapiens, SW48, SW48 pCC50 corrected with measured free fraction in cell assay media
REPORTED_PROPERTY: CC50 (µM)

| COMPOUND | OBSERVED_MEASUREMENT |
| --- | --- |
| COC12CC(CO[C@@H]3C[C@H](c4ccc(N(C)S(=O)(=O)c5ccc6c(c5)nc(C)n6C)cc4)[C@@H](C(=O)O)[C@H](C(=O)Nc4ccc(C(F)(F)F)cc4F)C3)(C1)C2 (relative stereo) | 0.0123 |
| Cc1nc2cc(S(=O)(=O)N(C)c3ccc([C@@H]4C[C@@H]5COC[C@@H]5[C@@H](C(=O)Nc5ccc(C(F)(F)F)cc5F)[C@@H]4C(=O)O)cc3)ccc2n1C (single isomer, unassigned) | 0.589 |
| Cc1nc2cc(S(=O)(=O)N(C)c3ccc([C@H]4C[C@@H](N5CCC(F)(F)CC5)C[C@@H](C(=O)Nc5ccc(C(F)(F)F)cc5F)[C@@H]4C(=O)O)cc3)ccc2n1C (stereo in doubt) | 0.0148 |
| Cc1nc2cc(S(=O)(=O)N(C)c3ccc([C@@H]4CCC[C@H](COc5ccc(C(F)(F)F)cc5)[C@H]4C(=O)O)cc3)cc([C@H]3CCCN(C)C3)c2n1C (single isomer, unassigned) | 0.0407 |
| O=C(O)[C@@H]1[C@@H](c2ccc(-c3cnsc3)cc2)CCC[C@H]1C(=O)Nc1ccc(C(F)(F)F)cc1F | 0.2 |
